# Tested on: antigen-induced bronchospasm in guinea pig
# Assay Name: Inhibitory effect on antigen-induced bronchospasm (Konzett-Roessler, ovalbumin-sensitized)
# Assay type: in vivo, guinea pig (Hartley male)
# Particulars: Cavia porcellus; intravenous, 10 minutes before antigen (0.2 mg/kg OA i.v.); read-out: Action for suppressing antigen-induced bronchospasms ED50
Readout: log10 of ED50 (log10 of the value in mg/kg)

Compound | Recorded Value
COc1ccc(C2(C)CCNC(=O)O2)cc1OC1Cc2ccccc2C1 (centres unmarked) [Compound No. 40] | -0.33
COc1ccc(C2CCN(C)C(=O)O2)cc1OCC(C)C (centres unmarked) [Compound No. 66] | -1.29
COc1ccc(C2(C)CCN(C)C(=O)O2)cc1OCC(C)C (centres unmarked) [Compound No. 82] | -1.35
CCN1CCC(c2ccc(OC)c(OC3CCCC3)c2)OC1=O (centres unmarked) [Compound No. 28] | 0.87
COc1ccc(C2(C)CCN(C)C(=O)O2)cc1OC1Cc2ccccc2C1 (centres unmarked) [Compound No. 43] | -0.54
